test system: HT29 colon; assay: NCI-60 one-dose screen, 48 h (100 = growth as untreated, 0 = no growth, -100 = all killed); conditions: 10 µM unless noted
Compounds without any hit were thinned out: in the full panel of roughly 83,000, 20% have a hit.
# label = bin(measured growth), where bins are Low = under 30%, Mid = from 30% up to 90%, High = 90% and over

Input line: // return the class label for CCCOS(=O)(=O)c1ccccc1
Output line: High

Input line: Please classify: O=C1C(=O)c2cccnc2-c2ncccc21
Output line: Low

Input line: Which bin should I file CCCCCCCCCCCC[S+](C)CC(=O)[O-] (configuration not stated) under?
Output line: Mid

Input line: In plain terms, what class is O=C(c1ccccc1)c1cc2ccccc2oc1=O ?
Output line: High

Input line: Which class does Nc1nc(N)c2cc(Sc3cccc(C(F)(F)F)c3)ccc2n1 fall in?
Output line: Low

Input line: Note: place this molecule into its band. Item: CCN(CC)CCNC(Cc1ccccc1)c1ccc(OCc2ccccc2)cc1 (configuration not stated)
Output line: Low

Input line: Note: place this molecule into its band. Item: CCCCCCCCCCCCCCCc1ccc(C(=O)C[n+]2ccccc2)cc1
Output line: Low

Input line: Classify this molecule: COc1cc(NCc2ccc3nc(N)nc(N)c3c2C)cc(OC)c1OC (tested in a mixture with another compound)
Output line: Low

Input line: Lab note: which band did CC1=CC(=NC(=O)CBr)C=C/C1=N\S(=O)(=O)c1ccccc1 land in?
Output line: Mid

Input line: Hi, small favor: classify CC(CSc1n[nH]c(=S)s1)c1ccccc1 (configuration not stated) by its growth when you get a moment.
Output line: High

Input line: In plain terms, what class is Oc1ccc(Cl)cc1C(c1cc(Cl)ccc1O)C(Cl)(Cl)Cl ?
Output line: Low

Input line: Band for O=C(/C=C/c1ccccc1)c1ccccc1O ?
Output line: Mid

Input line: Lab note: sort CC(C)(C)c1ccc(CCO)cc1 into the matching growth band.
Output line: High

Input line: For Oc1ccc2c(c1)CCc1ccccc1-2 , which growth bin applies?
Output line: High

Input line: Any idea which band CCCCCCCCCCCC1=NCCCN1CCCC is in?
Output line: Mid

Input line: Kindly identify the class of COc1ccc2c(c1)c(CC(=O)O)c(C)n2C(=O)c1ccc(Cl)cc1 .
Output line: High

Input line: Which class holds O=S(=O)(O)c1cnccn1 ?
Output line: High

Input line: // return the class label for CC1(C)OC2C(COC(c3ccccc3)(c3ccccc3)c3ccccc3)OC(c3c[nH]c4c(N)ncnc34)C2O1 (configuration not stated)
Output line: Mid

Input line: State the class of the molecule shown: CN(C)c1ccc(/C=C/c2cc[n+](C)c(/C=C/c3ccc(N(C)C)cc3)c2)cc1
Output line: Low

Input line: Record OC(c1cc(-c2ccc(Cl)cc2)nc2c(Cl)cccc12)C1CCCCN1 (configuration not stated) — which class?
Output line: Low

Input line: Sort into band: Cc1ccc2cccc(OC(=O)Nc3cccc(C(F)(F)F)c3)c2n1
Output line: Mid

Input line: Input Cc1onc(-c2ccccc2)c1C(=O)N/N=C/c1cc(Cl)cc(Cl)c1O ; output its category
Output line: Mid

Input line: Hey, which category is CN=C(N)N/N=C(\c1ccccc1)c1ccc(Br)cc1 in, do you know?
Output line: Low

Input line: Sort into band: Oc1ccc(Cl)cc1Cc1cc(Cl)ccc1O
Output line: Mid

Input line: Place this molecule in its band: CN(C)c1ccc(/C=C/c2ccnc3ccccc23)cc1
Output line: Low

Input line: Assign a bin to S=C=Nc1ccc(N2CCOCC2)cc1
Output line: Mid

Input line: Input CCN1/C(=C/C(C)=C/c2sc3ccc4ccccc4c3[n+]2CC)Sc2ccc3ccccc3c21 ; output its category
Output line: Low

Input line: Note: place this molecule into its band. Item: CCCCCCCCCCCCCCCCCC1=NCCCN1CCO
Output line: High

Input line: Class label required: CCOC(=O)C1=C(C(=O)c2ccccc2)C(c2cccc([N+](=O)[O-])c2)C(C(=O)c2ccccc2)=C(C(=O)OCC)N1
Output line: High

Input line: Quick check: band for C=C(C(N)=O)C(N)C(=O)O (configuration not stated)
Output line: High

Input line: For O=C(Nc1ccc(Cl)c(Cl)c1)OCc1ccco1 , which growth bin applies?
Output line: Mid

Input line: Entry CC(C)Nc1ccc(Nc2ccc(NC(C)C)cc2)cc1 belongs to which category?
Output line: Low

Input line: Band for the recorded growth of COc1cc(NC(=O)C2=C(C)NC(C)=C(C(=O)Nc3cc(OC)c(Cl)cc3OC)C2c2cccc([N+](=O)[O-])c2)c(OC)cc1Cl ?
Output line: Mid

Input line: Assign a bin to COc1ccc(/C=C2/C(=O)ON=C2C)cc1
Output line: High

Input line: Looking at Nc1ccc(C(=O)/C=C/c2ccccc2)cc1 , which class would you pick?
Output line: High

Input line: Consider COC1CC(C)C(OC)c2cc(O)cc(c2O)NC(=O)/C(C)=C/C=C\C(C)C(OC(N)=O)/C(C)=C\C(C)C1OC (configuration not stated) . To which growth class does it belong?
Output line: Low

Input line: Hello team, could you let me know which band the following molecule falls into: O=C(c1ccccc1)c1ccc(O)c2ncccc12
Output line: High

Input line: Please let me know in which category the item CCCOC(=O)c1nc(N(CC2CCCCC2)C(=O)NC)sc1/N=C/c1ccccc1 belongs.
Output line: Low

Input line: Just checking, what class would you give CSc1nc(C)c(C(=O)CCN2CCN(c3ccccn3)CC2)s1 here?
Output line: High

Input line: Field: class (growth) — entry: CCC(C)(O)Cc1ccc(Cl)cc1 (configuration not stated)
Output line: High

Input line: Into which bin does this molecule go? O=C(/C(Cl)=N/O)c1ccc(-c2ccccc2)cc1
Output line: Mid

Input line: Which bin, given its growth, does CC(=O)c1ccc2c(c1)CCc1ccccc1-2 occupy?
Output line: High

Input line: # classify by growth band: CN(C)c1ccc(/C=C/c2sc3ccc4ccccc4c3[n+]2C)cc1
Output line: Low

Input line: Lab note: which band did Cc1cc(C)c(C#N)c(Sc2nc(C)c([N+](=O)[O-])c(C)c2C#N)n1 land in?
Output line: Mid

Input line: Lab log: CC1(C)CCCC2=C1C(=O)N(SC(Cl)(Cl)Cl)C2=O — assign growth category
Output line: High
